Reference source: paper PMC8344233

# Test system: MCF-7
# measurementDescription: MTT cytotoxicity assay, MCF-7 (1st panel)
# Assay type: cell-based, human
# condition: ± SD; MTT, 72 h
measurementType: pIC50
Lab note: report pIC50 as minus log10 of the concentration in molar units, number only.

# input Let me know recorded pIC50 for CO[C@H]1/C=C\C=C(/C)C(=O)NC2=CC(=O)C(NC3CCC3)=C(C[C@@H](C)C[C@H](OC)[C@H](O)[C@@H](C)/C=C(\C)[C@@H]1OC(N)=O)C2=O [Compound 1] , thanks.
# output 6.89

# input State its pIC50 for this compound: CO[C@H]1/C=C\C=C(/C)C(=O)NC2=CC(=O)C(NC3CN4CCC3CC4)=C(C[C@@H](C)C[C@H](OC)[C@H](O)[C@@H](C)/C=C(\C)[C@@H]1OC(N)=O)C2=O (some centres unmarked) [Compound 8]
# output 7.05

====

# System: PC-3
# measurementDescription: SRB cytotoxicity assay, PC-3 (2nd panel)
# Format: cell-based, human
# condition: IC50 normal cell line HDF/IC50 PC-3
measurementType: selectivity index SIHDF (PC-3)
Answer with the value's number alone.

# input Item CO[C@H]1/C=C\C=C(/C)C(=O)NC2=CC(=O)C(NC3CN4CCC3CC4)=C(C[C@@H](C)C[C@H](OC)[C@H](O)[C@@H](C)/C=C(\C)[C@@H]1OC(N)=O)C2=O (stereo partly drawn) : provide selectivity index SIHDF (PC-3)
# output 2.19

# input Supply recorded selectivity index SIHDF (PC-3) for CO[C@H]1/C=C\C=C(/C)C(=O)NC2=CC(=O)C(NC3C[N+]4(C/C=C/c5ccccc5)CCC3CC4)=C(C[C@@H](C)C[C@H](OC)[C@H](O)[C@@H](C)/C=C(\C)[C@@H]1OC(N)=O)C2=O (stereo partly drawn) here.
# output 1.86

# input Dear colleague, please send me the reported selectivity index SIHDF (PC-3) for CO[C@H]1/C=C\C=C(/C)C(=O)NC2=CC(=O)C(NC3CCC3)=C(C[C@@H](C)C[C@H](OC)[C@H](O)[C@@H](C)/C=C(\C)[C@@H]1OC(N)=O)C2=O when you can.
# output 4.28

# input Read off the recorded selectivity index SIHDF (PC-3) for COC1=C2C[C@@H](C)C[C@H](OC)[C@H](O)[C@@H](C)/C=C(\C)[C@H](OC(N)=O)[C@@H](OC)/C=C\C=C(/C)C(=O)NC(=CC1=O)C2=O
# output 2.92

# input Return selectivity index SIHDF (PC-3) (reported value) for this molecule: C=CC[N+]12CCC(CC1)C(NC1=C3C[C@@H](C)C[C@H](OC)[C@H](O)[C@@H](C)/C=C(\C)[C@H](OC(N)=O)[C@@H](OC)/C=C\C=C(/C)C(=O)NC(=CC1=O)C3=O)C2 (stereo partly drawn)
# output 1.76

# input Given CO[C@H]1/C=C\C=C(/C)C(=O)NC2=CC(=O)C(NC3C[N+]4(Cc5ccc([N+](=O)[O-])o5)CCC3CC4)=C(C[C@@H](C)C[C@H](OC)[C@H](O)[C@@H](C)/C=C(\C)[C@@H]1OC(N)=O)C2=O (stereo partly drawn) , respond with its selectivity index SIHDF (PC-3).
# output 1.27

# input Identify measured selectivity index SIHDF (PC-3) corresponding to COc1cccc2c1C(=O)c1c(O)c3c(c(O)c1C2=O)C[C@@](O)(C(=O)CO)C[C@@H]3O[C@H]1C[C@H](N)[C@H](O)[C@H](C)O1 [DOX, doxorubicin, reference compound]
# output 2.24

# input Supply selectivity index SIHDF (PC-3) value. Item: C/C=C/C[N+]12CCC(CC1)C(NC1=C3C[C@@H](C)C[C@H](OC)[C@H](O)[C@@H](C)/C=C(\C)[C@H](OC(N)=O)[C@@H](OC)/C=C\C=C(/C)C(=O)NC(=CC1=O)C3=O)C2 (stereo partly drawn)
# output 1.57

# input State its selectivity index SIHDF (PC-3) for this molecule: CO[C@H]1/C=C\C=C(/C)C(=O)NC2=CC(=O)C(NC3C[N+]4(Cc5ccsc5Br)CCC3CC4)=C(C[C@@H](C)C[C@H](OC)[C@H](O)[C@@H](C)/C=C(\C)[C@@H]1OC(N)=O)C2=O (stereo partly drawn)
# output 1.75
